Provenance of the data: ChEMBL document CHEMBL1201862

Target: Insulin-degrading enzyme (Homo sapiens, UniProt P14735)
Sequence (P14735 whole entry): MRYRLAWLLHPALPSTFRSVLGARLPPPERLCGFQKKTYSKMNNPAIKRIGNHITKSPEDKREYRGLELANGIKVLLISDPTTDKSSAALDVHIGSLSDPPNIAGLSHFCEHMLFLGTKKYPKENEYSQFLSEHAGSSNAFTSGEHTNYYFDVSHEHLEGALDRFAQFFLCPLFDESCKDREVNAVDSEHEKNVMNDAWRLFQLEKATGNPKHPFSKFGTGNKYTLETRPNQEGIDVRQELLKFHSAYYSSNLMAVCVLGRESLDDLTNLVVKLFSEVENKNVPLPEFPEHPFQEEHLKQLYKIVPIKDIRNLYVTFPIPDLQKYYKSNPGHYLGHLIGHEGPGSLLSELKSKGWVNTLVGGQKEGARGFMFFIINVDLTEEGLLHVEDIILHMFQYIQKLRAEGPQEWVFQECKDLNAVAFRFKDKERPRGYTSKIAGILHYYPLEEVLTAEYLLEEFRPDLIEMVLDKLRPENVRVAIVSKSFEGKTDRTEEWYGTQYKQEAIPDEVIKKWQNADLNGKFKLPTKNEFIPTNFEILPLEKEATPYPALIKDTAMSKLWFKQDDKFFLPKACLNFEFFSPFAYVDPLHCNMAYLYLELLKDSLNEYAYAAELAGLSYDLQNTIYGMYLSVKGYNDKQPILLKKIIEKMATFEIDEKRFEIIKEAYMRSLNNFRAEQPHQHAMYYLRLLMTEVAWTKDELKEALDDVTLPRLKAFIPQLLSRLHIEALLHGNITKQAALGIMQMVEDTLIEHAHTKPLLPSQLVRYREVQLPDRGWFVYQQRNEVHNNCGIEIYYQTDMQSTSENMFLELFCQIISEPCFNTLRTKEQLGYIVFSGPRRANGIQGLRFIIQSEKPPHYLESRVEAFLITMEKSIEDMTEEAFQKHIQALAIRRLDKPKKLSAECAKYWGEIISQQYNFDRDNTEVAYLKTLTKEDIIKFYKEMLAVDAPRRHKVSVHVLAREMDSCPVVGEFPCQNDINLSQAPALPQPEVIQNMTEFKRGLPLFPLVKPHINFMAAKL
Assay: activators of endogenous IDE in HEK cells, dose response, cell-based, fluorescence polarization (AID 588439)
Type: functional
Activity calls are given as the source filed them. Rule as the data show it: active = EC50 of 10 µM or less and inactive = more.
// reported EC50 for each item listed

# example entries with known answers
INSERT INTO assay_data (molecule, recorded_result) VALUES
  ('O=C(NS(=O)(=O)Nc1ccccc1)C1=C(N2CCCC2)COC1=O', '> 54.7 µM (inactive)'),
  ('CCN1CCN(CCNC(=O)c2ccc(/C=C3/Sc4ccccc4N(Cc4cccc(C)c4)C3=O)cc2)CC1', '23.2 µM (inactive)'),
  ('COc1ccc(/C=C2\Oc3cc(OCC(=O)N4CCC(C(=O)O)CC4)ccc3C2=O)c(OC)c1OC', '22 µM (inactive)'),
  ('CC1CN(S(=O)(=O)c2ccc(C(=O)Nc3nncs3)cc2)CC(C)O1 (stereo not given)', '> 54.7 µM (inactive)');

In the following, a different molecule is considered.
For the molecule shown here, CCOc1cc(/C=N/Nc2cc(C)nc(-n3nc(C)cc3C)n2)ccc1O , give the reported EC50.
> 54.7 µM (inactive)
